# TEST TARGET: human orexin-2 receptor (Homo sapiens, UniProt O43614)
# Sequence (O43614 whole entry): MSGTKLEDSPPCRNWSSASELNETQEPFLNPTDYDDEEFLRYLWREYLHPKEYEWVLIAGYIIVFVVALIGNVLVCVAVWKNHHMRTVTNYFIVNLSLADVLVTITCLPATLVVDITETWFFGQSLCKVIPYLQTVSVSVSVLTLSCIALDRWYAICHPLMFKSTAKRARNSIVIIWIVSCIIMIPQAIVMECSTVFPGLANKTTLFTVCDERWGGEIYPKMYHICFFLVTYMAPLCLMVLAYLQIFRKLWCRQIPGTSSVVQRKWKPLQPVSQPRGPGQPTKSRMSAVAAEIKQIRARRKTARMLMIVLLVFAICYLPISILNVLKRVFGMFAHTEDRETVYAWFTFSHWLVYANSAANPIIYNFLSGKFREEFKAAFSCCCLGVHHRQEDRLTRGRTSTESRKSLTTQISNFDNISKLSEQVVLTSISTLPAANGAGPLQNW
# TEST DESCRIPTION: Intracellular calcium measurements (FLIPR), orexin receptor antagonistic activity, OX2
# SETUP CONDITIONS: CHO cells expressing the human orexin-2 receptor, 10 nM orexin-A as agonist
# Description: The orexin receptor antagonistic activity of the compounds of formula (I) is determined in accordance with the following experimental method. Intracellular Calcium Measurements: […] Within the Fluorescent Imaging Plate Reader (FLIPR, Molecular Devices), antagonists are added to the plate in a volume of 50 μl, incubated for 20 min and finally 100 μl of agonist is added. […]
pIC50: −log10 of the molar value.
ASSAY ENDPOINT: pIC50

INSERT INTO results (smiles, reading) VALUES
  ('Cc1cccc(-c2sc(C)nc2C(=O)N2[C@H](CNc3nccc(C(F)(F)F)n3)C[C@@H]3C[C@@H]32)c1', 7.01),
  ('CCn1cc(C(=O)NC[C@@H]2C[C@@H]3C[C@@H]3N2C(=O)c2nc(C)sc2-c2cccc(C)c2)c(C)n1', 7.82),
  ('O=C(NC[C@@H]1C[C@@H]2C[C@@H]2N1C(=O)c1nc(C2CC2)sc1-c1ccccc1F)c1cccc2c1CCO2', 7.47),
  ('O=C(NC[C@@H]1C[C@@H]2C[C@@H]2N1C(=O)c1ncsc1-c1cccc(Cl)c1)c1cccc2cccnc12', 6.34),
  ('Cc1nc2sccn2c1C(=O)NC[C@@H]1C[C@@H]2C[C@@H]2N1C(=O)c1ccccc1-c1cccc(Cl)c1', 7.22);

a = Cc1cc(C)cc(-c2sc(C)nc2C(=O)N2[C@H](CNc3ncc(Br)cn3)C[C@@H]3C[C@@H]32)c1
b = O=C(NC[C@@H]1C[C@@H]2C[C@@H]2N1C(=O)c1ccccc1-c1cccc(Cl)c1)c1cccc2occc12
Which of the two gives a bigger number for pIC50: a or b ? Could you answer with the label of the item you picked? b
